System: Leishmania amazonensis
assay: Antileishmanial activity against Leishmania amazonensis amastigotes assessed as reduction in parasite growth
Format: functional, organism-based
measurement-type: pIC50
The value called pIC50 is obtained by taking minus log10 of the concentration in mol/L.

Input: Sample C=C[C@@H](c1cc(CC=C(C)C)ccc1O)c1cc(CC=C(C)C)c(OC)cc1O — what was its pIC50?
Output: 5.95

Input: Sample CO[C@@H]1C(=O)C[C@H]2O[C@]1(C)n1c3ccccc3c3c4c(c5c6ccccc6n2c5c31)C(=O)NC4 — what was its pIC50?
Output: 8.30

Input: Sample CN[C@@H]1C[C@H]2O[C@@](C)([C@@H]1OC)n1c3ccccc3c3c4c(c5c6ccccc6n2c5c31)C(=O)NC4=O — what was its pIC50?
Output: 9.70

---

Test system: Leishmania infantum
assay: Antileishmanial activity against Leishmania infantum amastigotes infected in human THP-1 cells assessed as reduction in parasite growth incubated for 72 hrs by high content imaging analysis
Assay type: functional, organism-based
run-parameters: THP-1, 72 h
measurement-type: IC50 (µM)
Your answer should be a plain number; it is taken to be in µM.

Input: Sample CC1=CCC[C@H]2[C@](C)(Cc3cc(O)ccc3O)[C@@H](C)CC[C@]12C — what was its IC50?
Output: 3.19

---

Tested on: Leishmania infantum
assay: Antileishmanial activity against Leishmania infantum MHOM/MA/67/ITMAP263 promastigotes expressing red-shifted luciferase gene infected in mouse J774 cells incubated for 24 hrs by microplate luminometer analysis
Assay type: functional, organism-based
run-parameters: MHOM/MA/67/ITMAP263, J774, 24 h
measurement-type: EC50 (µM)
Your answer should be a plain number; it is taken to be in µM.

Input: Sample COc1cc(OC)c(C(=O)/C=C/c2cccc(C)c2)c([N+](=O)[O-])c1 — what was its EC50?
Output: 0.78

---

target-or-test-system: Arginase (Leishmania amazonensis)
measurement-type: pIC50
The value called pIC50 is obtained by taking minus log10 of the concentration in mol/L.

Input: Sample O=C(CCc1ccc(O)c(O)c1)O[C@H](Cc1ccc(O)cc1)C(=O)O — what was its pIC50?
Output: 5.26

---

Tested on: Leishmania infantum
assay: Antileishmanial activity against Leishmania infantum MON-1 promastigotes assessed as reduction in parasite viability measured after 48 hrs by MTT assay
Type: functional, organism-based
run-parameters: MON-1, 48 h
measurement-type: pIC50
The value called pIC50 is obtained by taking minus log10 of the concentration in mol/L.

Input: Sample COc1cc(OC)c(C(=O)/C=C/c2cccc(C)c2)c([N+](=O)[O-])c1 — what was its pIC50?
Output: 4.13

---

System: Leishmania major
assay: Antileishmanial activity against Leishmania major promastigote assessed as inhibition of parasite growth
Type: functional, organism-based
measurement-type: IC50

Input: Sample COc1c2ccoc2nc2c(OC)cccc12 — what was its IC50?
Output: > 74.2 µM

---

Tested on: Leishmania major
assay: Antileishmanial activity against Leishmania major amastigotes assessed as reduction in parasite growth incubated for 72 hrs by MTT assay
Assay type: functional, organism-based
Kindly supply the reported IC50 values for the records listed here.

Input: Sample CN[C@H]1CCc2cc(OC)c(OC)c(OC)c2-c2ccc(OC)c(=O)cc21 — what was its IC50?
Output: 14.8 µg/mL

Input: Sample COc1cc2c(c(OC)c1O)-c1ccc(OC)c(=O)cc1[C@@H](NC(C)=O)CC2 — what was its IC50?
Output: 10.2 µg/mL

Input: Sample COc1cc2c(c(OC)c1OC)-c1ccc(OC)c(=O)cc1[C@@H](NC(C)=O)CC2 — what was its IC50?
Output: 10.2 µg/mL

Input: Sample COc1cc2c(c(OC)c1OC)-c1ccc(OC)c(=O)cc1[C@@H](NC(=O)CO)CC2 — what was its IC50?
Output: 14 µg/mL

Ref: ChEMBL document CHEMBL5532635
